Cited source for all entries: patent US8039464B2

Test: Blood-brain-barrier passage: HPLC of plasma and CSF
Conditions: rat, in vivo, 50 mg/kg
REPORTED PROPERTY: Kp

{"COMPOUND": "O=C1Nc2cccnc2Nc2ccccc21 [LS-75, 6H-pyrido[2,3-b][1,4]benzodiazepin-6-one]", "REPORTED PROPERTY": "Kp", "RECORDED RESULT": "0.25 to 0.3"}

----------
Target: SIR-2 (Mus musculus, UniProt Q923E4)
Construct: Using a raw extract from murine embryonic stem cells; host or cells: murine embryonic stem cells (raw extract)
Sequence (Q923E4 2-737 limits assumed): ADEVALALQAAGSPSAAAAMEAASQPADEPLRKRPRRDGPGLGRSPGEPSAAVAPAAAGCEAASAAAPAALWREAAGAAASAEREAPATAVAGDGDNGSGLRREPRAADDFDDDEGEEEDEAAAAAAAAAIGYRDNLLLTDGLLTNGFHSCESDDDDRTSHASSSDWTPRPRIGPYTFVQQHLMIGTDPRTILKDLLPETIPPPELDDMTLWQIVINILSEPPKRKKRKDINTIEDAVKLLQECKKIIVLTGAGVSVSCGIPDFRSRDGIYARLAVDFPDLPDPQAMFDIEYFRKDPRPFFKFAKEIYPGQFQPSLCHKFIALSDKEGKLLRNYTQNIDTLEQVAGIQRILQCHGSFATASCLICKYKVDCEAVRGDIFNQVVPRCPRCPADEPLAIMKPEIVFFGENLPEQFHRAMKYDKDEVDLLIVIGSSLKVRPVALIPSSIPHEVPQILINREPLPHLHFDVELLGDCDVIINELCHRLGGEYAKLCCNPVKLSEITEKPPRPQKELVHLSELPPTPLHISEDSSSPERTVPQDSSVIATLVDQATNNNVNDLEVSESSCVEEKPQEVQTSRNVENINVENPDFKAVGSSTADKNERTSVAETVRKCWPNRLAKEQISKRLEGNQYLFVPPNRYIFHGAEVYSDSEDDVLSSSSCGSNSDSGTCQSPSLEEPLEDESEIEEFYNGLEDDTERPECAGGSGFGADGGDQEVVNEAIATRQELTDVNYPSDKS
Assay: SIR2 activity assay (CycLex SIR2 Assay kit)
Format: biochemical, murine
Description: For measurements of SIR2 activities, the quantitative test kit for NAD-dependent histone deacetylase activity CycLex® SIR2 Assay kit (Cat# CY-1151) was used according to instructions of manufacturer (CycLex Co., Ltd. 1063-103 Ohara, Tera-Sawaoka Ina, Nagano 396-0002 Japan). All substances tested in the SIR assay were cross-checked for their influence on the lysyl-endopeptidase. […]

{"COMPOUND": "O=C1Nc2cccnc2Nc2ccccc21 [LS-75, 6H-pyrido[2,3-b][1,4]benzodiazepin-6-one]", "IC50": "1 to 5 mM"}

----------
Biological target: SIR-2 (Mus musculus)
Construct: Using a raw extract from murine embryonic stem cells; host or cells: murine embryonic stem cells (raw extract)
Assay: SIR2 activity assay (CycLex SIR2 Assay kit)
Format: biochemical, murine
Settings: control; read-out: IC50 SIR-2 inhibition
pIC50: −log10 of the molar value.
REPORTED PROPERTY: pIC50

{"MOLECULE": "NC(=O)c1cccnc1 [nicotine amide, reference compound]", "REPORTED PROPERTY": "pIC50", "RECORDED RESULT": "~4.26"}

----------
Biological target: PARP-1 (Homo sapiens, UniProt P09874)
Construct: purchased R&D Systems TA4669
Sequence (P09874 whole entry): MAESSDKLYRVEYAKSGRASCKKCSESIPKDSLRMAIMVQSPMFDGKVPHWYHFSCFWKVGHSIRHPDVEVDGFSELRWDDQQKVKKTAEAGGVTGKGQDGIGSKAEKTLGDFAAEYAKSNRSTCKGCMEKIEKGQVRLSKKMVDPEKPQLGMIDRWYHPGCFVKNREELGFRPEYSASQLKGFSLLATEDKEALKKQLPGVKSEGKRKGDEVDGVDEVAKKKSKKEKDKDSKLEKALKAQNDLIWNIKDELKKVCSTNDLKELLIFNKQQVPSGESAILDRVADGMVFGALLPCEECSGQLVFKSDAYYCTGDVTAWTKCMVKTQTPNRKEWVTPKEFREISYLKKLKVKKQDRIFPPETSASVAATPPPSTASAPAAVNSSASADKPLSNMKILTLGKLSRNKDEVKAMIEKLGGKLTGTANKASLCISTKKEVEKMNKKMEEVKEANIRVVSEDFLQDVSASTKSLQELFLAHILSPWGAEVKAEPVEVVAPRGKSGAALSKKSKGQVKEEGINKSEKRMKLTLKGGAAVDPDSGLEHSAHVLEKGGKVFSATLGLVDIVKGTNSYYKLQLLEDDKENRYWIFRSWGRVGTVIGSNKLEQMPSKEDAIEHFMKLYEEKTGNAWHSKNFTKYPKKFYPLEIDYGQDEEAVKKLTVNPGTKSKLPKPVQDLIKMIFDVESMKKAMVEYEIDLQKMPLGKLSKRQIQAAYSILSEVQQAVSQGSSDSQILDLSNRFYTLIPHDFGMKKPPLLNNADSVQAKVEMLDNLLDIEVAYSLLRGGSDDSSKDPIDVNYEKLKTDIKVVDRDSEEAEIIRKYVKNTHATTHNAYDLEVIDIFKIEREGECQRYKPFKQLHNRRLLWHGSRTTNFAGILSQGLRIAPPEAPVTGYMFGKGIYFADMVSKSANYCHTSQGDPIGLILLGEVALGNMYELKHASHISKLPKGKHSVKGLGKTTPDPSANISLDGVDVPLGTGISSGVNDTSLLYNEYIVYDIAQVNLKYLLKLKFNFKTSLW
Test: PARP inhibition assay (R&D Systems, Cat. No. TA4669)
Type: biochemical
Settings: R&D assay, recombinant monomeric PARP-1; read-out: IC50 PARP-1 inhibition

{"MOLECULE": "CN1CCN(CC(=O)N2c3ccccc3C(=O)Nc3cccnc32)CC1 [Pirenzepine, reference compound]", "U": "µM", "IC50": 200}
{"MOLECULE": "O=c1[nH]c2ccccc2c2ccccc12 [phenanthridone, reference compound]", "U": "µM", "IC50": 7}
